tested on: KRAS PDC multicell spheroid viability; test: Anticancer human tumor 521955-158-R6-J3-PDC patient-derived pancreatic carcinoma cell line growth inhibition [KRAS2]; settings: second compound 3.16 µM; first compound 0.0316 µM; stronger effect = lower value
MEASUREMENT NAME: viability, T/C (%)
Report the figure in % without appending any unit label.

Some molecules with known viability, T/C results, for comparison:
MOLECULE	viability, T/C / %
CC(=O)OC12COC1CC(O)C1(C)C(=O)C(O)C3=C(C)C(OC(=O)C(O)C(NC(=O)OC(C)(C)C)c4ccccc4)CC(O)(C(OC(=O)c4ccccc4)C21)C3(C)C (stereo unspecified) + C=CC(=O)N1CCN(c2nc(OCC3CCCN3C)nc3c2CCN(c2cccc4cccc(C)c24)C3)CC1CC#N	81.4
CC(C)NCC(C(=O)N1CCN(c2ncnc3c2C(C)CC3O)CC1)c1ccc(Cl)cc1 (stereo unspecified) + CC1OCC2(CCN(c3cnc(Sc4ccnc(N)c4Cl)c(N)n3)CC2)C1N	86.9
CN(C)C/C=C/C(=O)Nc1cc2c(Nc3ccc(F)c(Cl)c3)ncnc2cc1O[C@H]1CCOC1 + COc1cc2nc(C)nc(NC(C)c3cc(N)cc(C(F)(F)F)c3)c2cc1OC1CCOC1	44.4
CC(=O)OC12COC1CC(O)C1(C)C(=O)C(O)C3=C(C)C(OC(=O)C(O)C(NC(=O)OC(C)(C)C)c4ccccc4)CC(O)(C(OC(=O)c4ccccc4)C21)C3(C)C (stereo unspecified) + CNCc1ccccc1-c1csc(C(C)Nc2nc(C)nc3cc(OC)c(OC)cc23)c1	72.7
CN(C)C/C=C/C(=O)Nc1cc2c(Nc3ccc(F)c(Cl)c3)ncnc2cc1O[C@H]1CCOC1 + C=CC(=O)N1CCN(c2nc(OCC3CCCN3C)nc3c2CCN(c2cccc4cccc(C)c24)C3)CC1CC#N	12.8
CCN1CCN(Cc2ccc(Nc3ncc(F)c(-c4cc(F)c5nc(C)n(C(C)C)c5c4)n3)nc2)CC1 + COc1cc2nc(C)nc(NC(C)c3cc(N)cc(C(F)(F)F)c3)c2cc1OC1CCOC1	79.1
Cn1nccc1Nc1nccc(-c2cc3c(s2)C(C)(C)N(CCN2CCOCC2)C3=O)n1 + CC1OCC2(CCN(c3cnc(Sc4ccnc(N)c4Cl)c(N)n3)CC2)C1N	82.1
CCN1CCN(Cc2ccc(Nc3ncc(F)c(-c4cc(F)c5nc(C)n(C(C)C)c5c4)n3)nc2)CC1 + CC1OCC2(CCN(c3cnc(Sc4ccnc(N)c4Cl)c(N)n3)CC2)C1N	84.4
CC1COCCN1c1cc(-c2ccnn2C)c2ccnc(-c3ccn[nH]3)c2n1 (stereo unspecified) + COc1cc2nc(C)nc(NC(C)c3cc(N)cc(C(F)(F)F)c3)c2cc1OC1CCOC1	71.6
CCNC(=O)CC1N=C(c2ccc(Cl)cc2)c2cc(OC)ccc2-n2c(C)nnc21 (stereo unspecified) + C=CC(=O)N1CCN(c2nc(=O)n(-c3c(C)ccnc3C(C)C)c3nc(-c4c(O)cccc4F)c(F)cc23)C(C)C1	89.3

Turning to the following molecule.
query: So what viability, T/C did CC1OCC2(CCN(c3cnc(Sc4ccnc(N)c4Cl)c(N)n3)CC2)C1N (stereo unspecified) + COc1cc2nc(C)nc(NC(C)c3cc(N)cc(C(F)(F)F)c3)c2cc1OC1CCOC1 get with KRAS PDC multicell spheroid viability?
result: 76.5

---

Each entry below carries its reported viability, T/C.
test system: KRAS PDC multicell spheroid viability; assay: Anticancer human tumor 521955-158-R6-J3-PDC cell line growth inhibition [KRAS2]; conditions: second compound 10 µM; first compound 0.316 µM; stronger effect = lower value;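 further: drug exposure lasted seven days; 100% = DMSO vehicle wells and lower means fewer viable cells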
Report the figure in % without appending any unit label.

Some molecules with known viability, T/C results, for comparison:
MOLECULE	UNIT LABEL	viability, T/C
CC(=O)OC12COC1CC(O)C1(C)C(=O)C(O)C3=C(C)C(OC(=O)C(O)C(NC(=O)OC(C)(C)C)c4ccccc4)CC(O)(C(OC(=O)c4ccccc4)C21)C3(C)C (centres undefined) + COc1cc2nc(C)nc(NC(C)c3cc(N)cc(C(F)(F)F)c3)c2cc1OC1CCOC1	%	84.6
COC(=O)c1ccc2c(C(=Nc3ccc(N(C)C(=O)CN4CCN(C)CC4)cc3)c3ccccc3)c(O)[nH]c2c1 + CNCc1ccccc1-c1csc(C(C)Nc2nc(C)nc3cc(OC)c(OC)cc23)c1	%	0.48
Cn1nccc1Nc1nccc(-c2cc3c(s2)C(C)(C)N(CCN2CCOCC2)C3=O)n1 + CC1OCC2(CCN(c3cnc(Sc4ccnc(N)c4Cl)c(N)n3)CC2)C1N	%	71.9
CCN1CCN(Cc2ccc(Nc3ncc(F)c(-c4cc(F)c5nc(C)n(C(C)C)c5c4)n3)nc2)CC1 + CC1OCC2(CCN(c3cnc(Sc4ccnc(N)c4Cl)c(N)n3)CC2)C1N	%	95.1

query: For CC1(C)CCC(CN2CCN(c3ccc(C(=O)NS(=O)(=O)c4ccc(NCC5CCOCC5)c([N+](=O)[O-])c4)c(Oc4cnc5[nH]ccc5c4)c3)CC2)=C(c2ccc(Cl)cc2)C1 + C=CC(=O)N1CCN(c2nc(=O)n(-c3c(C)ccnc3C(C)C)c3nc(-c4c(O)cccc4F)c(F)cc23)C(C)C1 , what is its reported viability, T/C?
result: 88.7

query: Continue with CC(C)NCC(C(=O)N1CCN(c2ncnc3c2C(C)CC3O)CC1)c1ccc(Cl)cc1 (centres undefined) + C=CC(=O)N1CCN(c2nc(=O)n(-c3c(C)ccnc3C(C)C)c3nc(-c4c(O)cccc4F)c(F)cc23)C(C)C1
result: 54.6

query: Continue with O=C(c1cc(Cc2n[nH]c(=O)c3ccccc23)ccc1F)N1CCN(C(=O)C2CC2)CC1 + CNCc1ccccc1-c1csc(C(C)Nc2nc(C)nc3cc(OC)c(OC)cc23)c1
result: 1.37

query: Continue with Cn1nccc1Nc1nccc(-c2cc3c(s2)C(C)(C)N(CCN2CCOCC2)C3=O)n1 + COc1cc2nc(C)nc(NC(C)c3cc(N)cc(C(F)(F)F)c3)c2cc1OC1CCOC1
result: 16

query: Continue with CC1OCC2(CCN(c3cnc(Sc4ccnc(N)c4Cl)c(N)n3)CC2)C1N (centres undefined) + CNCc1ccccc1-c1csc(C(C)Nc2nc(C)nc3cc(OC)c(OC)cc23)c1
result: 0.26

---

tested on: KRAS PDC multicell spheroid viability; test: Anticancer human tumor 521955-158-R6-J3-PDC cell line growth inhibition [KRAS2]; conditions: second compound 3.16 µM; first compound 0.316 µM; active = viability on the fitted dose curve at most 10% of control; inactive = the rest;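 further: drug exposure lasted seven days; 100% = DMSO vehicle wells and lower means fewer viable cells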
Please reply with one of these outcomes: active, inactive

COMPOUND	LABEL
COC(=O)c1ccc2c(C(=Nc3ccc(N(C)C(=O)CN4CCN(C)CC4)cc3)c3ccccc3)c(O)[nH]c2c1 + CC1OCC2(CCN(c3cnc(Sc4ccnc(N)c4Cl)c(N)n3)CC2)C1N	inactive
CC1COCCN1c1cc(-c2ccnn2C)c2ccnc(-c3ccn[nH]3)c2n1 (stereo not given) + CC1OCC2(CCN(c3cnc(Sc4ccnc(N)c4Cl)c(N)n3)CC2)C1N	inactive
CC1COCCN1c1cc(-c2ccnn2C)c2ccnc(-c3ccn[nH]3)c2n1 (stereo not given) + CNCc1ccccc1-c1csc(C(C)Nc2nc(C)nc3cc(OC)c(OC)cc23)c1	active
CC1(C)CCC(CN2CCN(c3ccc(C(=O)NS(=O)(=O)c4ccc(NCC5CCOCC5)c([N+](=O)[O-])c4)c(Oc4cnc5[nH]ccc5c4)c3)CC2)=C(c2ccc(Cl)cc2)C1 + COc1cc2nc(C)nc(NC(C)c3cc(N)cc(C(F)(F)F)c3)c2cc1OC1CCOC1	inactive
Cn1nccc1Nc1nccc(-c2cc3c(s2)C(C)(C)N(CCN2CCOCC2)C3=O)n1 + CC1OCC2(CCN(c3cnc(Sc4ccnc(N)c4Cl)c(N)n3)CC2)C1N	inactive
COC(=O)c1ccc2c(C(=Nc3ccc(N(C)C(=O)CN4CCN(C)CC4)cc3)c3ccccc3)c(O)[nH]c2c1 + C=CC(=O)N1CCN(c2nc(OCC3CCCN3C)nc3c2CCN(c2cccc4cccc(C)c24)C3)CC1CC#N	inactive
CCNC(=O)CC1N=C(c2ccc(Cl)cc2)c2cc(OC)ccc2-n2c(C)nnc21 (stereo not given) + CC1OCC2(CCN(c3cnc(Sc4ccnc(N)c4Cl)c(N)n3)CC2)C1N	inactive
CC1COCCN1c1cc(-c2ccnn2C)c2ccnc(-c3ccn[nH]3)c2n1 (stereo not given) + COc1cc2nc(C)nc(NC(C)c3cc(N)cc(C(F)(F)F)c3)c2cc1OC1CCOC1	inactive

query: Give the logged outcome of this assay for the following compound: CC1(C)CCC(CN2CCN(c3ccc(C(=O)NS(=O)(=O)c4ccc(NCC5CCOCC5)c([N+](=O)[O-])c4)c(Oc4cnc5[nH]ccc5c4)c3)CC2)=C(c2ccc(Cl)cc2)C1 + CC1OCC2(CCN(c3cnc(Sc4ccnc(N)c4Cl)c(N)n3)CC2)C1N
result: inactive

query: Continue with CC(=O)OC12COC1CC(O)C1(C)C(=O)C(O)C3=C(C)C(OC(=O)C(O)C(NC(=O)OC(C)(C)C)c4ccccc4)CC(O)(C(OC(=O)c4ccccc4)C21)C3(C)C (stereo not given) + CC1OCC2(CCN(c3cnc(Sc4ccnc(N)c4Cl)c(N)n3)CC2)C1N
result: inactive
